Listing of entries alongside the reported inhibition.
target-of-assay: D(4) dopamine receptor (Homo sapiens) (UniProt P21917)
Sequence (P21917 whole entry): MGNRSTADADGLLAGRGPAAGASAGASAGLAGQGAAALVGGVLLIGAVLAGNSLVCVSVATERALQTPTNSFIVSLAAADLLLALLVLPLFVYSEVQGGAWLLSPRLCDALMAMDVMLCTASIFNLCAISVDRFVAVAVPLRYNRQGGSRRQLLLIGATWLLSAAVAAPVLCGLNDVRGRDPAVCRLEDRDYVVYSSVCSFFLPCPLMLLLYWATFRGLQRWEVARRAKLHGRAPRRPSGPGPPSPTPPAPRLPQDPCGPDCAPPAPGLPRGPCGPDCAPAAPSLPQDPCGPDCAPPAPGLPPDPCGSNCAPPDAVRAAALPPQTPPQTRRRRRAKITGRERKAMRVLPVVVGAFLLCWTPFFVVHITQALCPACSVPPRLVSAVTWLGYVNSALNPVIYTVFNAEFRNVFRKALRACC
measurement-conditions: Compound concentration 10 µM
Description: PDSP Primary Binding target: DRD4 - Compounds are tested at 10 uM concentration, plate are incubated at room temperature in the dark for 90 minutes. Reaction are stopped by vacuum filtration onto 0.3% polyethyleneimine soaked filter mats using Filtermate harvester. Scintilation cocktail is then melted onto microwave-dried filters on a hot plate and the radio activity is counted in Microbia counter.
measurement-label: inhibition (%)

# smiles-record, measurement-label, value-observed
measured = [
    ("COc1cccc([C@H](O)C2CCN(CCc3ccc(F)cc3)CC2)c1OC", "inhibition", 43.9),
    ("Cc1cccc([C@H](C)c2c[nH]cn2)c1C", "inhibition", 26.9),
    ("CCOC(=O)c1cc(C#N)c(N2CCC(C(=O)NS(=O)(=O)Cc3ccccc3)CC2)nc1C", "inhibition", 7.97),
    ("COc1cc(-n2cnc3cc(-c4ccc(Cl)cc4)sc3c2=O)ccc1OCCN1CCCC1", "inhibition", 32.4),
    ("Cc1nc(C(=O)N2CCC[C@H]2Cc2nnc(-c3ccccc3)o2)c(-c2ccccc2F)s1", "inhibition", -5.22),
    ("CCc1cc2c(cc1CC)CC(NC[C@H](O)c1ccc(O)c3[nH]c(=O)ccc13)C2", "inhibition", 24.2),
    ("Cc1nn(C)c(C)c1-c1cccc2c1CC[C@H](N(C)C)C2", "inhibition", 24.5),
    ("CCC(=O)NCC[C@@H]1CCc2ccc3c(c21)CCO3", "inhibition", -3.2),
    ("N#Cc1c[nH]c2c(C(=O)N3CCN(CCc4ccc(F)cc4)CC3)cccc12", "inhibition", 81.9),
    ("Cc1ccc(O)c([C@H](CCN(C(C)C)C(C)C)c2ccccc2)c1", "inhibition", 35.3),
    ("CCc1cc2c(c(CC)n1)CCC(=O)N2Cc1ccc(-c2ccccc2-c2nnn[nH]2)cc1", "inhibition", 70),
    ("NCCc1cn(S(=O)(=O)c2c(Cl)nc3sccn23)c2ccccc12", "inhibition", 38.7),
    ("Nc1nc(NCCc2ccc(O)cc2)nc2nc(-c3ccco3)nn12", "inhibition", 4.31),
    ("COc1ccc(S(=O)(=O)N2c3ccc(Cl)cc3[C@](O)(c3ccccc3Cl)[C@@H]2C(=O)N2CCC[C@H]2C(N)=O)cc1OC", "inhibition", -3.97),
    ("COc1ccccc1N1CCN(CCCCNC(=O)c2ccc3ccccc3c2)CC1", "inhibition", 95.1),
    ("CN1C[C@H](C(=O)N[C@]2(C)O[C@@]3(O)[C@@H]4CCCN4C(=O)[C@H](Cc4ccccc4)N3C2=O)C[C@@H]2c3cccc4[nH]cc(c34)C[C@H]21", "inhibition", 100),
    ("O=C(O)C1CN(Cc2ccc(OCc3ccc(Cl)c(Cl)c3)cc2)C1", "inhibition", -0.79),
]

This collection of values is drawn from ChEMBL document CHEMBL5442219.
